Protocol: probe aNog binding to arrayed compounds – biochemical, biotinylated probe, 635/667 nm fluorescence, primary screen (AID 1115);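 also: probe is biotinylated aNog protein used at 0.15 µg/mL for 1 h at 4 C; z-score combines 667 nm fluorescence of each spot with its signal to noise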
Reported Conditions: small-molecule microarray, higher = more signal
Experimental Readout: composite z-score
I'd appreciate a reply containing only the number, no unit.

Check out these entries, answers already filled in.
COc1ccc(C(=O)Nc2ccc(CN3C(=O)[C@]4(O[C@H](CC(=O)N5CCC[C@H]5CO)[C@@H]([Si](C)(C)c5ccc(OC)cc5)[C@@H]4C)c4ccccc43)cc2)cc1 = 0.116
COCCOC(=O)N1C(=O)[C@@]2(c3ccccc31)[C@H](C(=O)N1CCCCCCC1)[C@H]1C(=O)O[C@H](c3ccccc3)[C@H](c3ccccc3)N1[C@@H]2c1ccc(OCCO)cc1 = 3.67
COCCCNC(=O)[C@@H]1c2ccccc2C(=O)N(Cc2ccccc2)[C@H]1c1ccc(CO)cc1 = -0.69

Attention now turns to another entry.
Check the records and state composite z-score for CO[C@H]1O[C@H](CO)[C@@H](OC(=O)Nc2ccc(Oc3ccccc3)cc2)[C@H](OC(=O)Nc2ccc3c(c2)OCO3)[C@@H]1OC(=O)Nc1ccc2c(c1)OCO2 0.565

----------
Protocol: probe aXIP binding to arrayed compounds – biochemical, NeuroSMM set, 635/667 nm fluorescence, primary screen (AID 1119);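 also: probe is the protein aXip251-270 applied at 1 µg/mL to compound-printed slides; binding of probe to printed compounds measured as 667 nm fluorescence plus signal to noise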
Reported Conditions: small-molecule microarray, higher = more signal, called active from +8 up or from −8 down
Given measured composite Z-score, output condition met if it is greater than or equal to 0.6 and condition not met if not.

COC(=O)c1c2oc(c1C(=O)OC)C(=O)N[C@@H](C(C)C)Cn1cc(nn1)C1(CCCCC1)NC(=O)N[C@H](CO)CC2 = condition not met
COc1ccc([C@H]2OC[C@@H]3CCC(=O)N32)cc1 = condition met
O=C(CS)NCCCCCNC(=O)[C@H]1C[C@H]2C(=O)NCC(=O)N2[C@H]1c1ccc(O)cc1 = condition not met

Entry CCC(CC)C(O)C1C=CC2C(=O)N(c3ccccc3)C(=O)C2N1Nc1ccccc1 (stereo not given) : is its composite Z-score no less than 0.6? condition met

----------
Protocol: probe aLefty1 binding on compound microarray – biochemical, small-molecule microarray, 635/667 nm fluorescence, primary screen (AID 1153);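 also: score merges spot fluorescence with signal-to-noise ratio from the scanned slide images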
Reported Conditions: higher = more signal
Decide using composite z-score: a value greater than or equal to 0.09 is 1, a smaller one is 0.

COc1cc2c(cc1O)C(c1cccs1)N(Cc1cccc(OC(F)(F)F)c1)CC2 (stereo unspecified) = 0
CC(C)OC(=O)C=C1C[C@@H](c2cccc(Cl)c2)O[C@@H](c2cccc(Cl)c2)O1 = 1
C=CCN(Cc1ccccc1)C(=O)C(c1cccs1)N(C(=O)/C=C\C(=O)O)c1ccc(CCOCCO)cc1 (stereo unspecified) = 0
O=C1O[C@@H](c2ccccc2)[C@@H](c2ccccc2)N2[C@@H](c3ccccc3OCCO)[C@]3(C(=O)Nc4ccc(C#CC5(O)CCCCCC5)cc43)[C@@H](C(=O)N3CCN(c4ncccn4)CC3)[C@H]12 = 0
C=C[C@H](C)[C@@H](OC(=O)Nc1ccc(SC)cc1)c1ccc(O)c2ccccc12 = 1
CO[C@H]1O[C@H](CO)[C@@H](OC(=O)Nc2ccccc2-c2ccccc2)[C@H](OC(=O)Nc2ccccc2-c2ccccc2)[C@@H]1OC(=O)Nc1ccccc1-c1ccccc1 = 1

For the next question, use this compound.
Does composite z-score meet or surpass 0.09 for CCCCC(=C=CC[C@@H](O)c1cccc(OCCO)c1)C[C@@H](O)c1ccccn1 ? 0

----------
Protocol: COS7 lysate on small-molecule microarray, probe aHis, 635 nm (AID 1123);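 also: z-score combines 667nm fluorescence intensity with signal-to-noise per printed compound spot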
Reported Conditions: COS7 cell lysate, fluorescence, higher = more signal
Experimental Readout: composite z-score
Reply with the value as a number alone.

COC(=O)[C@@]1(CCC(=O)OC(C)(C)C)N=C(c2ccc(OCCCO)cc2)O[C@H]1c1ccccc1 = 2.16
C=CCNC(=O)[C@@H]1[C@H]2C(=O)O[C@H](c3ccccc3)[C@H](c3ccccc3)N2[C@H](c2ccc(OCCO)cc2)[C@@]12C(=O)N(C(=O)OCCOC)c1ccc(C#CCNC(N)=O)cc12 = 1.02
CN(C)CCCCCCNC(=O)[C@@H]1C[C@@H]2C(=O)N3CCC[C@H]3C(=O)N2[C@@H]1c1ccc(O)cc1 = 2.77
C=CCC(OC(C)=O)[C@@H]1[C@@H](N(Cc2ccc(-c3cccc(C(F)(F)F)c3)o2)C(=O)Cc2ccc(OC)cc2)c2cc(OCCCO)ccc2N1C(=O)c1ccc2ccccc2c1 (stereo not given in full) = 1.14
[N-]=[N+]=Nc1ccccc1C[C@]1(C(=O)NCc2ccccc2)N=C(c2ccc(OCCCO)cc2)O[C@H]1c1ccccc1N=[N+]=[N-] = 2.63
COc1ccc(CCNC(=O)[C@@]2(C)c3ccccc3C(=O)N(c3ccc(C)cn3)[C@H]2c2ccc(CO)cc2)cc1 = -0.335

State its composite z-score for this compound: COc1ccc([Si](C)(C)[C@@H]2[C@@H](CCn3cc(CCO)nn3)O[C@]3(C(=O)N(Cc4cccc(N5C(=O)c6cccc7cccc5c67)c4)c4ccccc43)[C@H]2C)cc1 1.01

Return value of composite z-score for input NCCCCCCNC(=O)[C@H]1C[C@H]2C(=O)N[C@@H](Cc3ccccc3)C(=O)N2[C@H]1c1cccc(OCCO)c1 , no commentary. 0.446

Report measured composite z-score; entry is COc1ccc(C(=O)Nc2ccc(CN3C(=O)[C@]4(O[C@H](CC(=O)N5CCC[C@H]5CO)[C@@H]([Si](C)(C)c5ccc(OC)cc5)[C@@H]4C)c4ccccc43)cc2)cc1 1.72

Consider the compound CCCC=C(CCC)[C@@H](NC(=O)OCC(C)C)c1ccccc1 and give its recorded composite z-score. 1.6

Quickly give me recorded composite z-score for COC(=O)[C@@]1(Cc2ccc(OC)cc2)[C@H]2c3cc(C(=O)N4CCCC4)n(CCCNc4ncc(C(F)(F)F)cc4Cl)c3C[C@H]2CN1C(=O)c1ccccc1 0.97

Entry NC(=O)N1C(=O)C2C(C1=O)C1C=C(CCCO)C2C(C2CC2)N1Cc1cc2c(cc1Br)OCO2 (stereo not given) needs its composite z-score filled in; supply it. 0.872

Return value of composite z-score for input CC1CC/C=C\[C@H]2OC34C=CCN(c5ccc6ccccc6c5)C(=O)[C@H]3N(CCO)C(=O)[C@@H]4C2C(=O)O1 (stereo not given in full) , no commentary. 0.275

Identify the reported composite z-score for the following entry. COc1ccc([Si](C)(C)[C@H]2[C@H](CC(=O)N3CCC[C@H]3CO)O[C@@]3(C(=O)N(Cc4cccc(N5CCOC5=O)c4)c4ccccc43)[C@@H]2C)cc1 0.626

Indicate its recorded composite z-score; the compound in question is COc1cc(OC)c(C(O)C2C=CC3C(=O)NC(=O)C3N2Nc2ccccn2)cc1Br (stereo not given) 0.973

----------
Test system: XIP peptide (Xip251-270)
Protocol: compounds binding XIP fragment 251-270 – biochemical, small-molecule microarray, fluorescence 635/667 nm, 0.5 µg/mL protein, primary screen (AID 1183)
Reported Conditions: fluorescence 635 nm, higher = more signal
Experimental Readout: composite z-score
Provide a numeric answer; units are not to be included.

COCCOC(=O)N1C(=O)[C@@]2(c3ccccc31)[C@H](C(=O)N1CCc3cc(OC)c(OC)cc3C1)[C@H]1C(=O)O[C@H](c3ccccc3)[C@H](c3ccccc3)N1[C@@H]2c1ccc(O)cc1 = 0.807
O=C(O)[C@H](Cc1ccccc1)n1cc(-c2ccccc2)nn1 = 0.297
O=C1O[C@@H](c2ccccc2)[C@@H](c2ccccc2)N2[C@@H](c3ccc(OCCO)cc3)[C@]3(C(=O)Nc4ccc(C#CC5=CCCCC5)cc43)[C@@H](C(=O)N3CCCCCCC3)[C@H]12 = 0.679
CCCCN1CC=CC23O[C@@H]4/C=C\CCCOC(=O)C4[C@H]2C(=O)N(CCCO)[C@@H]3C1=O (stereo not given in full) = 0.737
O=C1[C@H]2C=C(Br)[C@H](C[C@@H]2OCCCCCCO)[C@@]12CO2 = -0.777
CC(C)[C@@H](C(=O)O)n1cc(C2(O)CCCCC2)nn1 = 0.297

Give the measured composite z-score for COc1cc2c(cc1OC)CN(C(=O)[C@H]1[C@@H]3C(=O)O[C@@H](c4ccccc4)[C@@H](c4ccccc4)N3[C@@H](c3ccccc3OCCO)[C@]13C(=O)Nc1ccc(C#CCCO)cc13)CC2 0.438

Consider the compound COc1cc2c(cc1O)C(c1cccs1)N(Cc1ccc([N+](=O)[O-])o1)CC2 (stereo not given) . State its measured composite z-score. 0.947

Give the value of composite z-score reported for the following: O=C1OCCC/C=C\[C@H]2OC34C=CCN(c5ccc6ccccc6c5)C(=O)[C@H]3N(CCCCCO)C(=O)[C@@H]4C12 (stereo not given in full) 0.0861

For the compound C=CCC(OC(C)=O)[C@@H]1[C@@H](N(Cc2ccc(-c3ccccc3)cc2)C(=O)Cc2ccc(F)cc2)c2cc(OCCCO)ccc2N1C(=O)c1ccc2ccccc2c1 (stereo not given in full) , report composite z-score. -0.245
